# ASSAYED SYSTEM: Intercellular adhesion molecule (ICAM-1), Integrin alpha-L/beta-2 (Homo sapiens, UniProt P05107+P20701)
# Sequence (P20701 whole entry): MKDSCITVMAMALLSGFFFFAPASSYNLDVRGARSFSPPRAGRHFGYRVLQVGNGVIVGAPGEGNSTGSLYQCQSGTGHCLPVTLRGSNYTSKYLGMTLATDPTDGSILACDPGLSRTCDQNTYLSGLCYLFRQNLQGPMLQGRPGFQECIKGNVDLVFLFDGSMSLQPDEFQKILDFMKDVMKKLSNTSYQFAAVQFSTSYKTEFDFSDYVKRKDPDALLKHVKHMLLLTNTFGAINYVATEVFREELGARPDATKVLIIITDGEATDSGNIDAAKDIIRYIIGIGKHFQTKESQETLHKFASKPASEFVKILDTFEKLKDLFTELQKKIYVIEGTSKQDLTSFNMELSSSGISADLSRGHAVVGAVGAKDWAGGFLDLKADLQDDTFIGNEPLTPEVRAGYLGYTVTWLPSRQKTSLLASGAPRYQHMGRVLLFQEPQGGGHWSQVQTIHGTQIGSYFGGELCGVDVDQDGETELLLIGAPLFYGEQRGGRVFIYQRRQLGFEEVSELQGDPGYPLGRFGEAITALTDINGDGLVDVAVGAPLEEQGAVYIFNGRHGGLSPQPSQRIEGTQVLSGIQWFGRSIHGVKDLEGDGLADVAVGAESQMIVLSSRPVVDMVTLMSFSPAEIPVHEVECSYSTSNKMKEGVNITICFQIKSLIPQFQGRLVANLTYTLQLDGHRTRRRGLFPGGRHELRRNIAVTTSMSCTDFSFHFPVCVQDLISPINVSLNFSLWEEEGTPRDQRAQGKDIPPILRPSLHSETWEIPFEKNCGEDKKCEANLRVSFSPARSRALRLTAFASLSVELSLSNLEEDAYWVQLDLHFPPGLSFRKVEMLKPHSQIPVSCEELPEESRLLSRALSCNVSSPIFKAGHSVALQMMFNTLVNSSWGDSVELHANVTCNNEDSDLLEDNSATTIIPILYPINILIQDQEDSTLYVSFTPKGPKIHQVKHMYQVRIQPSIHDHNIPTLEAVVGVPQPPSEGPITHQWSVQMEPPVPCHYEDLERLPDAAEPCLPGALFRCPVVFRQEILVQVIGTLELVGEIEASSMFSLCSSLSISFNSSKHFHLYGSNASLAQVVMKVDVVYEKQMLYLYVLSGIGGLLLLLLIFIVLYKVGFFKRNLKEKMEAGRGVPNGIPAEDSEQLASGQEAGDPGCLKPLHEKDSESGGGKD
# Sequence (P05362 whole entry, further chain): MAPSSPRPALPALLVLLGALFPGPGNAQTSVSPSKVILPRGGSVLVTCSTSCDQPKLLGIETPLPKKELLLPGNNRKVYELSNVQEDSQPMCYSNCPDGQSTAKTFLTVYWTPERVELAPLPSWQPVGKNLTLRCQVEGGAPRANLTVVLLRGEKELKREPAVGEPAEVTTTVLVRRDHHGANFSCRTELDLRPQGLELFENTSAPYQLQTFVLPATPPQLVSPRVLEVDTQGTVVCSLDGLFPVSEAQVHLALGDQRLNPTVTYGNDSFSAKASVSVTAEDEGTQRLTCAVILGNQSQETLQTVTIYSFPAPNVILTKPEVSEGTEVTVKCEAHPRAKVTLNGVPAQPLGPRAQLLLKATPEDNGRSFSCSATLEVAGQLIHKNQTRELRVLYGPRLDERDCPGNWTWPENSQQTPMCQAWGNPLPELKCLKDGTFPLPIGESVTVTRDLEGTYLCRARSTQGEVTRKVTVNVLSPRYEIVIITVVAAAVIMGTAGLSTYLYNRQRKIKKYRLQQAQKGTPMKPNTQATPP
# Sequence (P05107 whole entry): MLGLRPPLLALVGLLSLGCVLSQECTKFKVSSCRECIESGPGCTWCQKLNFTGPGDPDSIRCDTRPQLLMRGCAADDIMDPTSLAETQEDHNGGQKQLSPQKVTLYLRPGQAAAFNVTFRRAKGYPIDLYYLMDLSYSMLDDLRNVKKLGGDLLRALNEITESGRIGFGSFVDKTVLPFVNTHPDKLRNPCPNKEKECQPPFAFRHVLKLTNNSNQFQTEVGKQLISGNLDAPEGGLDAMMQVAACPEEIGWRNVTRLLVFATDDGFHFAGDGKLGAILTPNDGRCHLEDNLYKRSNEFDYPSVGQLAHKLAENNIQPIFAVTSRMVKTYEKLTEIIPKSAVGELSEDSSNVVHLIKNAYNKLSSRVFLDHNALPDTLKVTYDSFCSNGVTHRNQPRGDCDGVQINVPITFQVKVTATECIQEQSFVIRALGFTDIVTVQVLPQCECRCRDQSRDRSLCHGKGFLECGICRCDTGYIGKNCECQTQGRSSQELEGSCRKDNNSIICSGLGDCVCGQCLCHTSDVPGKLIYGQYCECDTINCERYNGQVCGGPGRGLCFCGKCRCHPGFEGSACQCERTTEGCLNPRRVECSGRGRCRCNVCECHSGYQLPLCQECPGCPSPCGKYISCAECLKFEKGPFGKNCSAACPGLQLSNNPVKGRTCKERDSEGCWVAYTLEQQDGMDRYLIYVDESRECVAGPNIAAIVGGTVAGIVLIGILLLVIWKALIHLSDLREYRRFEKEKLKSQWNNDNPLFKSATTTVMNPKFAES
# ASSAY COMMENT: Ability to block the interaction between integrin LFA-1 and its adhesion partner ICAM-1 in a time-resolved fluorescent LFA-1/ICAM-1 biochemical interaction assay
# Type: protein-complex assay
Measured IC50 of individual entries
ENDPOINT LABEL: IC50

- O=C(/C=C/c1ccccc1Sc1ccc(Cl)cc1Cl)NCCc1ccccc1: > 100 µM
- O=C(/C=C/c1ccc(Sc2ccc(Cl)cc2Cl)c(/C=C/C(=O)N2CCOCC2)c1)NCCCN1CCCC1=O: > 20 µM
- CN(CCC(=O)Nc1ccccc1Sc1ccc(Cl)cc1Cl)Cc1ccccc1: > 100 µM
- Cc1cccc2sc(NC(=O)/C=C/c3ccccc3Sc3ccc(Cl)cc3Cl)nc12: > 100 µM
